Tested on: HCV RNA replicon ET
Assay: HCV RNA replicon luciferase reporter assay, antiviral activity
Assay type: cell-based
Conditions: ET replicon cells, 72 h, LUC activity; concentration reducing viral replication by 50%
Readout Kind: pEC50
Answers are plain numbers, as −log10 of the molar value.

Tell me the measured pEC50 of CC=CCC(C)C(O)C1C(=O)NC(CC)C(=O)N(C)C(OCCN2CCCCC2)C(=O)N(C)C(CC(C)C)C(=O)NC(C(C)C)C(=O)N(C)C(CC(C)C)C(=O)NC(C)C(=O)NC(C)C(=O)N(C)C(CC(C)C)C(=O)N(C)C(CC(C)C)C(=O)N(C)C(C(C)C)C(=O)N1C (centres unmarked) [K, 3-[2-(piperidin-1-yl)ethoxy]cyclosporin] , please.
6.59

----------
Test system: HCV RNA replicon ET
Test: HCV RNA replicon luciferase reporter assay, antiviral activity
Type: cell-based
Details: ET replicon cells, 72 h, LUC activity; concentration reducing viral replication by 50%
Readout Kind: EC50 (nM)
Numbers only, in nM.

Before answering, review these 2 worked examples.
Compound: C/C=C/C[C@@H](C)[C@@H](O)[C@H]1C(=O)N[C@@H](CC)C(=O)N(C)[C@H](SCCN(C)C)C(=O)N(C)[C@@H](CC(C)(C)O)C(=O)N[C@@H](C(C)C)C(=O)N(C)[C@@H](CC(C)C)C(=O)N[C@@H](C)C(=O)N[C@H](C)C(=O)N(C)[C@@H](CC(C)C)C(=O)N(C)[C@@H](CC(C)C)C(=O)N(C)[C@@H](C(C)C)C(=O)N1C [Compound O]
Observed Measurement: 122
//
Compound: C/C=C/C[C@@H](C)[C@@H](O)[C@H]1C(=O)N[C@@H](CC)C(=O)N(C)[C@H](SCCOC)C(=O)N(C)[C@@H](CC(C)C)C(=O)N[C@@H](C(C)C)C(=O)N(C)[C@@H](CC(C)C)C(=O)N[C@@H](C)C(=O)N[C@H](C)C(=O)N(C)[C@@H](CC(C)C)C(=O)N(C)[C@@H](CC(C)C)C(=O)N(C)[C@@H](C(C)C)C(=O)N1C [R, 3-[(2-methoxy)ethylthio]cyclosporin]
Observed Measurement: 310

Read the next record carefully.
Tell me the measured EC50 of C/C=C/C[C@@H](C)[C@@H](O)[C@H]1C(=O)N[C@@H](CC)C(=O)N(C)C(OCCN(C)C(C)C)C(=O)N(C)[C@@H](CC(C)C)C(=O)N[C@@H](C(C)C)C(=O)N(C)[C@@H](CC(C)C)C(=O)N[C@@H](C)C(=O)N[C@H](C)C(=O)N(C)[C@@H](CC(C)C)C(=O)N(C)[C@@H](CC(C)C)C(=O)N(C)[C@@H](C(C)C)C(=O)N1C (stereo partly drawn) [J] , please.
150

----------
System: human hepatoma cell line ET
Experiment: Cytotoxicity in the replicon cell line, colorimetric assay of cell numbers
Details: read-out: Cytotoxicity IC50; ET cells, 72 h; concentration inhibiting cell viability by 50%
Readout Kind: IC50
Entry format: amount then unit.

Test Smiles: C/C=C/C[C@@H](C)[C@@H](O)[C@H]1C(=O)N[C@@H](CC)C(=O)N(C)[C@H](OCCN2CCOCC2)C(=O)N(C)[C@@H](CC(C)C)C(=O)N[C@@H](C(C)C)C(=O)N(C)[C@@H](CC(C)C)C(=O)N[C@@H](C)C(=O)N[C@H](C)C(=O)N(C)[C@@H](CC(C)C)C(=O)N(C)[C@@H](CC(C)C)C(=O)N(C)[C@@H](C(C)C)C(=O)N1C
IC50: 11.5 µM

Read the next record carefully.
Tell me the measured IC50 of C=CCS[C@@H]1C(=O)N(C)[C@@H](CC(C)C)C(=O)N[C@@H](C(C)C)C(=O)N(C)[C@@H](CC(C)C)C(=O)N[C@@H](C)C(=O)N[C@H](C)C(=O)N(C)[C@@H](CC(C)C)C(=O)N(C)[C@@H](CC(C)C)C(=O)N(C)[C@@H](C(C)C)C(=O)N(C)[C@@H]([C@H](O)[C@H](C)C/C=C/C)C(=O)N[C@@H](CC)C(=O)N1C , please.
18.9 µM

----------
Give EC50 for every item shown.
Tested on: HCV RNA replicon ET
Assay: HCV RNA replicon luciferase reporter assay, antiviral activity
Assay type: cell-based
Settings: ET replicon cells, 72 h, LUC activity; concentration reducing viral replication by 50%
Where a name gives a salt, the structure may show the parent alone.
Entry format: amount then unit.

Before answering, review these 5 worked examples.
Molecule: C/C=C/C[C@@H](C)[C@@H](O)[C@H]1C(=O)N[C@@H](CC)C(=O)N(C)C(OCC)C(=O)N(C)[C@@H](CC(C)C)C(=O)N[C@@H](C(C)C)C(=O)N(C)[C@@H](CC(C)C)C(=O)N[C@@H](C)C(=O)N[C@H](C)C(=O)N(C)[C@@H](CC(C)C)C(=O)N(C)[C@@H](CC(C)C)C(=O)N(C)[C@@H](C(C)C)C(=O)N1C (stereo partly drawn)
Observed Measurement: 3350 nM

Molecule: C/C=C/C[C@@H](C)[C@@H](O)[C@H]1C(=O)N[C@@H](CC)C(=O)N(C)C(SCC)C(=O)N(C)[C@@H](CC(C)C)C(=O)N[C@@H](C(C)C)C(=O)N(C)[C@@H](CC(C)C)C(=O)N[C@@H](C)C(=O)N[C@H](C)C(=O)N(C)[C@@H](CC(C)C)C(=O)N(C)[C@@H](CC(C)C)C(=O)N(C)[C@@H](C(C)C)C(=O)N1C (stereo partly drawn)
Observed Measurement: 230 nM

Molecule: CC=CCC(C)C(O)C1C(=O)NC(CC)C(=O)N(C)C(SCCN(C)C)C(=O)N(C)C(CC(C)(C)O)C(=O)NC(C(C)C)C(=O)N(C)C(CC(C)C)C(=O)NC(C)C(=O)NC(C)C(=O)N(C)C(CC(C)C)C(=O)N(C)C(CC(C)C)C(=O)N(C)C(C(C)C)C(=O)N1C (stereo not drawn) [hydrochloride]
Observed Measurement: 110 nM

Molecule: C/C=C/C[C@@H](C)[C@@H](O)[C@H]1C(=O)N[C@@H](CC)C(=O)N(C)C(OCCNC)C(=O)N(C)[C@@H](CC(C)C)C(=O)N[C@@H](C(C)C)C(=O)N(C)[C@@H](CC(C)C)C(=O)N[C@@H](C)C(=O)N[C@H](C)C(=O)N(C)[C@@H](CC(C)C)C(=O)N(C)[C@@H](CC(C)C)C(=O)N(C)[C@@H](C(C)C)C(=O)N1C (stereo partly drawn) [Compound I, 3-[2-(N-methylamino)ethoxy]cyclosporin]
Observed Measurement: 1010 nM

Molecule: C/C=C/C[C@@H](C)[C@@H](O)[C@H]1C(=O)N[C@@H](CC)C(=O)N(C)[C@H](OCCN)C(=O)N(C)[C@@H](CC(C)C)C(=O)N[C@@H](C(C)C)C(=O)N(C)[C@@H](CC(C)C)C(=O)N[C@@H](C)C(=O)N[C@H](C)C(=O)N(C)[C@@H](CC(C)C)C(=O)N(C)[C@@H](CC(C)C)C(=O)N(C)[C@@H](C(C)C)C(=O)N1C
Observed Measurement: 1180 nM

Read the next record carefully.
Tell me the measured EC50 of C/C=C/C[C@@H](C)[C@@H](O)[C@H]1C(=O)N[C@@H](CC)C(=O)N(C)[C@H](OCC(C)(C)C)C(=O)N(C)[C@@H](CC(C)C)C(=O)N[C@@H](C(C)C)C(=O)N(C)[C@@H](CC(C)C)C(=O)N[C@@H](C)C(=O)N[C@H](C)C(=O)N(C)[C@@H](CC(C)C)C(=O)N(C)[C@@H](CC(C)C)C(=O)N(C)[C@@H](C(C)C)C(=O)N1C , please.
17000 nM

----------
Tested on: HIV-1IIIB
Experiment: HIV MTS cytoprotection assay in CEM-SS cells
Format: cell-based, human immunodeficiency virus-1
Conditions: 6 days post-infection, concentration inhibiting virus replication by 50%
Class field: derived from EC50; ranges low value = under 200 nM, medium value = from 200 nM up to 1000 nM, high value = 1000 nM and over

Illustrative cases are given below, each with its answer.
Compound: C/C=C/C[C@@H](C)[C@@H](O)[C@H]1C(=O)N[C@@H](CC)C(=O)N(C)C(OCCCO)C(=O)N(C)[C@@H](CC(C)C)C(=O)N[C@@H](C(C)C)C(=O)N(C)[C@@H](CC(C)C)C(=O)N[C@@H](C)C(=O)N[C@H](C)C(=O)N(C)[C@@H](CC(C)C)C(=O)N(C)[C@@H](CC(C)C)C(=O)N(C)[C@@H](C(C)C)C(=O)N1C (stereo partly drawn) [H, 3-(3-hydroxypropoxy)cyclosporin]
Class Assignment: high value

Compound: C/C=C/C[C@@H](C)[C@@H](O)[C@H]1C(=O)N[C@@H](CC)C(=O)N(C)[C@H](SCCN(C)C)C(=O)N(C)[C@@H](CC(C)(C)O)C(=O)N[C@@H](C(C)C)C(=O)N(C)[C@@H](CC(C)C)C(=O)N[C@@H](C)C(=O)N[C@H](C)C(=O)N(C)[C@@H](CC(C)C)C(=O)N(C)[C@@H](CC(C)C)C(=O)N(C)[C@@H](C(C)C)C(=O)N1C
Class Assignment: low value

Compound: C/C=C/C[C@@H](C)[C@@H](O)[C@H]1C(=O)N[C@@H](CC)C(=O)N(C)[C@H](OC(C)C)C(=O)N(C)[C@@H](CC(C)C)C(=O)N[C@@H](C(C)C)C(=O)N(C)[C@@H](CC(C)C)C(=O)N[C@@H](C)C(=O)N[C@H](C)C(=O)N(C)[C@@H](CC(C)C)C(=O)N(C)[C@@H](CC(C)C)C(=O)N(C)[C@@H](C(C)C)C(=O)N1C
Class Assignment: high value

Compound: C/C=C/C[C@@H](C)[C@@H](O)[C@H]1C(=O)N[C@@H](CC)C(=O)N(C)[C@H](SCCOC)C(=O)N(C)[C@@H](CC(C)C)C(=O)N[C@@H](C(C)C)C(=O)N(C)[C@@H](CC(C)C)C(=O)N[C@@H](C)C(=O)N[C@H](C)C(=O)N(C)[C@@H](CC(C)C)C(=O)N(C)[C@@H](CC(C)C)C(=O)N(C)[C@@H](C(C)C)C(=O)N1C [R, 3-[(2-methoxy)ethylthio]cyclosporin]
Class Assignment: medium value

Compound: C=CCO[C@@H]1C(=O)N(C)[C@@H](CC(C)(C)O)C(=O)N[C@@H](C(C)C)C(=O)N(C)[C@@H](CC(C)C)C(=O)N[C@@H](C)C(=O)N[C@H](C)C(=O)N(C)[C@@H](CC(C)C)C(=O)N(C)[C@@H](CC(C)C)C(=O)N(C)[C@@H](C(C)C)C(=O)N(C)[C@@H]([C@H](O)[C@H](C)C/C=C/C)C(=O)N[C@@H](CC)C(=O)N1C
Class Assignment: low value

In plain terms, what class is C/C=C/C[C@@H](C)[C@@H](O)[C@H]1C(=O)N[C@@H](CC)C(=O)N(C)C(SCC)C(=O)N(C)[C@@H](CC(C)C)C(=O)N[C@@H](C(C)C)C(=O)N(C)[C@@H](CC(C)C)C(=O)N[C@@H](C)C(=O)N[C@H](C)C(=O)N(C)[C@@H](CC(C)C)C(=O)N(C)[C@@H](CC(C)C)C(=O)N(C)[C@@H](C(C)C)C(=O)N1C (stereo partly drawn) ?
low value

And what about the compound C/C=C/C[C@@H](C)[C@@H](O)[C@H]1C(=O)N[C@@H](CC)C(=O)N(C)[C@H](SCCOC)C(=O)N(C)[C@@H](CC(C)(C)O)C(=O)N[C@@H](C(C)C)C(=O)N(C)[C@@H](CC(C)C)C(=O)N[C@@H](C)C(=O)N[C@H](C)C(=O)N(C)[C@@H](CC(C)C)C(=O)N(C)[C@@H](CC(C)C)C(=O)N(C)[C@@H](C(C)C)C(=O)N1C ?
medium value

And what about the compound C/C=C/C[C@@H](C)[C@@H](O)[C@H]1C(=O)N[C@@H](CC)C(=O)N(C)[C@H](OCCCOC)C(=O)N(C)[C@@H](CC(C)(C)O)C(=O)N[C@@H](C(C)C)C(=O)N(C)[C@@H](CC(C)C)C(=O)N[C@@H](C)C(=O)N[C@H](C)C(=O)N(C)[C@@H](CC(C)C)C(=O)N(C)[C@@H](CC(C)C)C(=O)N(C)[C@@H](C(C)C)C(=O)N1C ?
medium value

And what about the compound C/C=C/C[C@@H](C)[C@@H](O)[C@H]1C(=O)N[C@@H](CC)C(=O)N(C)C(SC)C(=O)N(C)[C@@H](CC(C)(C)O)C(=O)N[C@@H](C(C)C)C(=O)N(C)[C@@H](CC(C)C)C(=O)N[C@@H](C)C(=O)N[C@H](C)C(=O)N(C)[C@@H](CC(C)C)C(=O)N(C)[C@@H](CC(C)C)C(=O)N(C)[C@@H](C(C)C)C(=O)N1C (stereo partly drawn) ?
low value

And what about the compound C/C=C/C[C@@H](C)[C@@H](O)[C@H]1C(=O)N[C@@H](CC)C(=O)N(C)[C@H](OCCN2CCOCC2)C(=O)N(C)[C@@H](CC(C)C)C(=O)N[C@@H](C(C)C)C(=O)N(C)[C@@H](CC(C)C)C(=O)N[C@@H](C)C(=O)N[C@H](C)C(=O)N(C)[C@@H](CC(C)C)C(=O)N(C)[C@@H](CC(C)C)C(=O)N(C)[C@@H](C(C)C)C(=O)N1C ?
high value

And what about the compound C=CCS[C@@H]1C(=O)N(C)[C@@H](CC(C)C)C(=O)N[C@@H](C(C)C)C(=O)N(C)[C@@H](CC(C)C)C(=O)N[C@@H](C)C(=O)N[C@H](C)C(=O)N(C)[C@@H](CC(C)C)C(=O)N(C)[C@@H](CC(C)C)C(=O)N(C)[C@@H](C(C)C)C(=O)N(C)[C@@H]([C@H](O)[C@H](C)C/C=C/C)C(=O)N[C@@H](CC)C(=O)N1C ?
medium value

# credit: patent US7718767B2
